Value source: patent US20250313548A1

target: human, KCNT1 (Homo sapiens (Human)); assay: FLIPR Tl/K Flux Assay; details: HEK293 cells stably expressing human KCNT1; Tl+ flux stimulated with EC80 of agonist Loxapine
Sequence (Q5JUK3 whole entry): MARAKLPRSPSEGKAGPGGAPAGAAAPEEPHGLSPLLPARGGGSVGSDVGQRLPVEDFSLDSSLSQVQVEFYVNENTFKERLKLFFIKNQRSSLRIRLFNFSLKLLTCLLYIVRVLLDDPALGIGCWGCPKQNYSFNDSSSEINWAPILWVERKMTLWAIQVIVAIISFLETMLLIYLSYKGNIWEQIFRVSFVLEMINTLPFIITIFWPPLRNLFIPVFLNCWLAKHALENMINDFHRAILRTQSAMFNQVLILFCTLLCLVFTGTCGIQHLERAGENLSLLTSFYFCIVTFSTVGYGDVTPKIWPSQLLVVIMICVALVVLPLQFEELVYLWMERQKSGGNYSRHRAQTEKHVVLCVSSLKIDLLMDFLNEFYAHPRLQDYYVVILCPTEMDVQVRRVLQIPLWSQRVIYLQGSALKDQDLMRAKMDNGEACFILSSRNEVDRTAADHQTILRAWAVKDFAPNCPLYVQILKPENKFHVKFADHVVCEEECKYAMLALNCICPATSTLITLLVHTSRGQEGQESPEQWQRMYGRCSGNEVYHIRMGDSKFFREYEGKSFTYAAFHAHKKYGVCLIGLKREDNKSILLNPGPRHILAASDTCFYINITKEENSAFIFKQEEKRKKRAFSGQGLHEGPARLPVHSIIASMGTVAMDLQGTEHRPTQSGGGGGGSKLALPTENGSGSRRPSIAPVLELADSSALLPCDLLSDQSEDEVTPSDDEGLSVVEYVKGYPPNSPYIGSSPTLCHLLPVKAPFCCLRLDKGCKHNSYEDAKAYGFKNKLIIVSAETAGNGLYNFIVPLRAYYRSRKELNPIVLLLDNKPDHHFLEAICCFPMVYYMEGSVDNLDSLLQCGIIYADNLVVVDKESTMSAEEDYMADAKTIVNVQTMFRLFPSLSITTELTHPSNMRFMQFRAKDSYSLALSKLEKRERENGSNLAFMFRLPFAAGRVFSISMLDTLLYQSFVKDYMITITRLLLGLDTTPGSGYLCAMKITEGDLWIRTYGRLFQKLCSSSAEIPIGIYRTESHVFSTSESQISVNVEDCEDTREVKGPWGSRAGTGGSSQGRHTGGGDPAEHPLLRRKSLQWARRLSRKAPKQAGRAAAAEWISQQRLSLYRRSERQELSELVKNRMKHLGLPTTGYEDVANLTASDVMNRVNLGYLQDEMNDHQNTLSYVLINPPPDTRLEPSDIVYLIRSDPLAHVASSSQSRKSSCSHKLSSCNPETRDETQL
Please provide measured IC50 for the entries that follow.

Observed IC50, human, KCNT1 (Homo sapiens (Human)), COc1cc(-c2nc3c(o2)[C@@H](NC(=O)c2cccc(C(F)(F)F)c2)CCC3)c(F)cn1 [Compound I-177a] : < 250 nM

Observed IC50, human, KCNT1 (Homo sapiens (Human)), COc1cc(C(=O)N[C@H]2CCCc3cnc(-c4ccnc(C(F)(F)F)c4)cc32)ccn1 (single isomer, unassigned) [I-269*] : > 1000 nM

Observed IC50, human, KCNT1 (Homo sapiens (Human)), N#Cc1cc(C(=O)N[C@H]2CCc3nn(-c4ccnc(C(F)(F)F)c4)cc32)ccc1F [Compound I-267a] : < 250 nM

Observed IC50, human, KCNT1 (Homo sapiens (Human)), Cn1nc(C(F)(F)F)cc1C(=O)NC1CCCc2nn(-c3ccn4nccc4c3)cc21 (racemic) [Compound I-38] : > 1000 nM

Observed IC50, human, KCNT1 (Homo sapiens (Human)), O=C(N[C@@H]1CCCc2nc(-c3ccnc(C4CC4)c3)oc21)c1cncc(C(F)(F)F)n1 [Compound I-509b] : > 1000 nM

Observed IC50, human, KCNT1 (Homo sapiens (Human)), CC(F)(F)c1cc(-c2nc3c(o2)CCCC3NC(=O)c2cc(C(F)(F)F)n(C(F)F)n2)ccn1 (single isomer, unassigned) [Compound I-534] : < 250 nM

Observed IC50, human, KCNT1 (Homo sapiens (Human)), CCOc1cc(-n2cc3c(n2)CCCC3NC(=O)c2cccc(C(F)(F)F)c2)ccn1 (racemic) [Compound I-18] : < 250 nM

Observed IC50, human, KCNT1 (Homo sapiens (Human)), Cc1nn(C(F)(F)F)cc1C(=O)N[C@H]1CCn2nc(-c3ccnc(C(F)(F)F)c3)cc21 [Compound I-556a] : < 250 nM

Observed IC50, human, KCNT1 (Homo sapiens (Human)), COc1cc(C(=O)N[C@@H]2CCn3nc(-c4cc(C(F)(F)F)ncc4F)cc32)ccn1 [Compound I-485b] : < 250 nM

Observed IC50, human, KCNT1 (Homo sapiens (Human)), COc1cc(C(=O)N[C@H]2CCCCn3nc(-c4ccnc(C(F)(F)F)c4)cc32)ccn1 [Compound I-329a] : < 250 nM

Observed IC50, human, KCNT1 (Homo sapiens (Human)), Cn1nc2ccccc2c1C(=O)NC1CCCc2nn(-c3ccnc(C(F)(F)F)c3)cc21 (racemic) [Compound I-26] : 250 to 500 nM

Observed IC50, human, KCNT1 (Homo sapiens (Human)), COc1cc(-c2nc3n(n2)CCC[C@@H]3NC(=O)c2cc(C(F)(F)F)nn2C)ccn1 [Compound I-260a] : 250 to 500 nM

Observed IC50, human, KCNT1 (Homo sapiens (Human)), O=C(N[C@H]1CCCc2nc(-c3ccnc(C4CC4)c3)oc21)c1cccc(C(F)(F)F)c1 [Compound I-171a] : < 250 nM

Observed IC50, human, KCNT1 (Homo sapiens (Human)), N#Cc1cc(F)cc(C(=O)N[C@H]2CCCCn3nc(-c4ccnc(C(F)(F)F)c4)cc32)c1 [Compound I-319a] : < 250 nM

Observed IC50, human, KCNT1 (Homo sapiens (Human)), CC(C)c1cc(-c2cc3n(n2)CCC[C@@H]3NC(=O)c2cc(C(F)(F)F)nn2C)ccn1 [Compound I-429a] : < 250 nM

Observed IC50, human, KCNT1 (Homo sapiens (Human)), O=C(N[C@H]1CCn2nc(-c3ccnc(C(F)(F)F)c3)cc21)C1CC(C(F)(F)F)C1 (stereo partly drawn) [Compound I-147a] : < 250 nM

Observed IC50, human, KCNT1 (Homo sapiens (Human)), Cc1c(-n2cc3c(n2)CCC[C@@H]3NC(=O)c2cc(C(F)(F)F)nn2C)ccnc1C(F)(F)F [Compound I-359a] : < 250 nM

Observed IC50, human, KCNT1 (Homo sapiens (Human)), N#Cc1cccc(C(=O)N[C@H]2CCCn3nc(-c4cc(C(F)(F)F)ncc4F)cc32)c1 [Compound I-302a] : < 250 nM
